The following compounds are listed with their measured EC50 values.
Target: UniProt:O14842
Sequence (O14842 whole entry): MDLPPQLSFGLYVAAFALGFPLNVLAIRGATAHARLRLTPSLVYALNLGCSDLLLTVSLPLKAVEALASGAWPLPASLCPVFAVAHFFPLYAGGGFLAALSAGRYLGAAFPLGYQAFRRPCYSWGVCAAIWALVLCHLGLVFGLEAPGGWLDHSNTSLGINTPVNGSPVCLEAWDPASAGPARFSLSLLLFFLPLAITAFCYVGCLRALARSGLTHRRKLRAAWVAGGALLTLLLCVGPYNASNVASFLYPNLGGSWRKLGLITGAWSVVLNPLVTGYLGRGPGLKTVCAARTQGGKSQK
Assay: Cell-based aequorin assay (CHO cells stably expressing GPR40 and aequorin)
Parameters: expressed in transfected cells; host or cells: CHO cells stably transfected with GPR40 and aequorin
Conditions: activation of human GPR40, CHO cells, 0.01% HSA

As a guide, the following entries are already answered.
- compound: "COc1ccc(F)c(-c2ccc(COc3cccc([C@@H](CC(=O)O)CC4CC4)c3)cc2C(OC)C(C)(C)C)c1 (single isomer, unassigned) [Example 69.18]"
  EC50: "0.1 to 1 µM"
- compound: "COc1ccc(F)c(-c2ccc(COc3cccc(C(CC(=O)O)C4CC4)c3)cc2CN2CCCCCC2)c1 (single isomer, unassigned) [Example 66.73]"
  EC50: "1 to 10 µM"
- compound: "COc1ccc(F)c(-c2ccc(COc3cccc(CCC(=O)O)c3)cc2C2=CCCC2)c1 [Example 39]"
  EC50: "1 to 10 µM"
- compound: "CCC(C)(C)C(OC)c1cc(COc2cccc(C(CC(=O)O)CC3CC3)c2)ccc1-c1cc(OC)ccc1F (single isomer, unassigned) [Example 69.41]"
  EC50: "0.1 to 1 µM"
- compound: "CC1(C)CCC[C@@H]1c1cc(COc2cccc([C@@H](CC(=O)O)C3CC3)c2)ccc1-c1cc(C(F)F)ccc1F (single isomer, unassigned) [Example 66.51]"
  EC50: "0.1 to 1 µM"

Given CCCC(CC(=O)O)c1cccc(OCc2ccc(-c3cccc(OC)c3)c(C3CCCC3(C)C)c2)c1 (single isomer, unassigned) [Example 80.6] , state its recorded EC50.
0.1 to 1 µM

Given CCC[C@H](CC(=O)O)c1cccc(OCc2cc(C3=CCCC3(C)C)c(-c3cc(OC)ccc3F)cc2F)c1 (single isomer, unassigned) [Example 67.21] , state its recorded EC50.
0.1 to 1 µM

Given CCCC(CC(=O)O)c1cccc(OCc2ccc(-c3cc(OC)ccc3F)c(C3CCCC3)c2)c1 (single isomer, unassigned) [Example 67.10] , state its recorded EC50.
0.1 to 1 µM

Given COc1ccc(F)c(-c2ccc(COc3cccc(C(CC(=O)O)CC4CC4)c3F)cc2C(F)C(C)(C)C)c1 (single isomer, unassigned) [Example 84.7] , state its recorded EC50.
0.01 to 0.1 µM

Given CCCC(CC(=O)O)c1cccc(OCc2ccc(-c3cc(OC)ccc3F)c(C3CCCCC3)c2)c1 (single isomer, unassigned) [Example 67.8] , state its recorded EC50.
0.1 to 1 µM

Given CCCCCOc1cc(COc2cccc([C@H](C)CC(=O)O)c2)ccc1-c1cc(OC)ccc1F (single isomer, unassigned) [Example 28] , state its recorded EC50.
0.1 to 1 µM

Given COc1ccc(F)c(-c2ccc(COc3cccc([C@H](C)CC(=O)O)c3)cc2OCC(C)C)c1 (single isomer, unassigned) [Example 29] , state its recorded EC50.
0.1 to 1 µM
